system: U251 CNS; test: NCI tumour cell line growth inhibition, 48 h
Parameter measured: TGI

// known answers, use as guide
INPUT: Fetch value of TGI on U251 CNS for N[C@H](C(=O)O)[C@@H]1CC(Br)=NO1 .
OUTPUT: > 100 µM

INPUT: State the measured TGI (U251 CNS) of Nc1ccc2c(c1)nc1n2C(c2c(F)cccc2F)SC1 (stereo unspecified)
OUTPUT: > 100 µM

INPUT: Report TGI under test system U251 CNS for c1ccc2c(c1)Nc1ccncc1S2 .
OUTPUT: > 100 µM

INPUT: State TGI (U251 CNS) of NC(=O)NNC(=O)NC12CC3CC(CC(C3)C1)C2 .
OUTPUT: > 100 µM

INPUT: Enter recorded TGI with U251 CNS for O=C1C(Cl)C2(CC(/C=C/c3ccccc3)=NN2c2cccc(S(=O)(=O)O)c2)N1c1nc2ccccc2s1 (stereo unspecified) here.
OUTPUT: 32.1 µM

INPUT: Report TGI under test system U251 CNS for NC(=O)C(=CNC(=S)Nc1ccccc1)C(N)=O .
OUTPUT: > 100 µM

INPUT: Would you please give the reported TGI of OC(C#Cc1ccccc1)(c1ccccc1)c1ccccc1 with U251 CNS?
OUTPUT: 83.4 µM

INPUT: Print U251 CNS TGI for CSc1nc2sc3c(c2c(=O)n1-c1ccc(C(C)C)cc1)CCC(=O)C3 .
OUTPUT: 3.07 µM

***
INPUT: // output TGI; input COC(=O)c1ccc2c(c1)S/C(=C/c1ccc3ccc4cccc5ccc1c3c45)S2 ; system U251 CNS
OUTPUT: > 100 µM

INPUT: Provide TGI, tested on U251 CNS, for C=CNC(=O)NC(=O)CSc1nnc(-c2ccccc2NC(=O)C(F)(F)F)c(=O)[nH]1 .
OUTPUT: > 100 µM

INPUT: For U251 CNS, give TGI of the listed compound: N#CCCN1C/C(=C/c2ccc(Cl)cc2)C(=O)/C(=C/c2ccc(Cl)cc2)C1
OUTPUT: 1.48 µM

---

test system: SNB-75 CNS; experiment: NCI tumour cell line growth inhibition, 48 h
Listed compounds paired with reported TGI

Here are 8 compounds together with their reported answers.
INPUT: Specify measured TGI for [N-]=[N+]=NI1OC(=O)c2ccccc21 .
OUTPUT: > 100 µM

INPUT: Write down TGI measured for item COC(=O)c1cncc(/C=C/c2c(C)cc(O)cc2C)c1
OUTPUT: > 18.8 µM

INPUT: Identify measured TGI associated with CC1(C)OCC([C@H]2O[C@@H](CC(=S)NCCCCCCCCCCCCNC(=S)C[C@H]3O[C@@H](C4COC(C)(C)O4)[C@H]4OC(C)(C)O[C@H]43)[C@H]3OC(C)(C)O[C@H]32)O1 (some centres not stated)
OUTPUT: > 100 µM

INPUT: Please supply the value of reported TGI for the item COC(=O)/C=C(\CC(=O)OC)n1nnnc1[C@@H]1C[C@H](COC(c2ccccc2)(c2ccccc2)c2ccccc2)[C@H]2OC(C)(C)O[C@H]21
OUTPUT: > 100 µM

INPUT: Give TGI for COC1C(O)C(CO)OC(OC2C(O)COC(OC3C(C)OC(OC4C(O[C@H]5CC[C@@]6(C)C(CC=C7[C@H]6CCC68C(=O)O[C@@](C)(CCCC(C)C)[C@H]6[C@@H](OC(C)=O)C[C@@]78C)C5(C)C)OCC(OS(=O)(=O)O)C4O)C(OC4OCC(O)C(O)C4O)C3O)C2O)C1O (some centres not stated)
OUTPUT: 0.465 µM

INPUT: Please look at this compound and report its TGI: Cc1cc(N(CCCNc2ccnc3cc(Cl)ccc23)Cc2ccco2)nc(N2CCN(C)CC2)n1
OUTPUT: 5.56 µM

INPUT: For the compound CC(N)Cc1ccc(Cl)c(Cl)c1 (configuration not stated) , give its measured TGI value.
OUTPUT: > 92.3 µM

INPUT: Give the value of TGI reported for the following: COC(=O)CCCCC(=O)c1c(C)[nH]c(/C=C2\N=C(c3ccc[nH]3)C=C2OC)c1C
OUTPUT: 2.24 µM

Please turn your attention to the following entry.
INPUT: Quote TGI reported for CCOC(=O)N1N=C(/C(C)=N/OC)C(C)S1=O (configuration not stated) please.
OUTPUT: > 100 µM
